# Assay explanation: Solubility of the compound in water by multiscreen solubility
# Format: physicochemical
Catalogue of molecules with associated solubility
Quantity name: solubility

COc1ccc(/C=C(/C(C)=O)c2cc(OC)c(OC)c(OC)c2)cc1O ... 456 µM
COc1cc(/C(=C\c2ccc(C)cc2)C(C)=O)cc(OC)c1OC ... 443 µM
COc1ccc(/C=C(/C(C)=O)c2cc(OC)c(OC)c(OC)c2)cc1 ... 319 µM

* * *

Catalogue of compounds with associated EC50
# Assay explanation: Induction of microtubule depolymerization in […] cells for 18 hrs by indirect immunofluorescence microscopic analysis
# Format: cell-based
Quantity name: EC50 (µM)

COc1ccc(/C=C(/C(C)=O)c2cc(OC)c(OC)c(OC)c2)cc1 ... 18.6
COc1ccc(/C=C(/C(C)=O)c2cc(OC)c(OC)c(OC)c2)cc1O ... 1.8
COc1cc(/C(=C\c2ccc(C)cc2)C(C)=O)cc(OC)c1OC ... 5.6

The reported measurements were obtained from ChEMBL document CHEMBL1765023.
